System: Thrips
Settings: thrips on cotton plants, greenhouse; dose 1 ml/gm/lit. spray; 48 hrs; corrected for water control
Observation Type: % Corrected Mortality at 48 Hrs. (%)

CC1=CC(=O)C(C(C)C)=CC1=O [Thymoquinone]
11.11
CC12CCC(CC1=O)C2(C)C (stereo not drawn) [Camphor]
36.11
C=C1C2CCC(C2)C1(C)C (stereo not drawn) [Camphene, camphene]
44.44
C/C=C\c1cc(OC)c(OC)cc1OC [β-Asarone]
61.11
O=C(/C=C/C=C/c1ccc2c(c1)OCO2)N1CCCCC1 [Piperine]
25.00
CC1CCC(C(C)C)C(O)C1 (stereo not drawn) [Menthol]
69.44
C=CCc1ccc(OC)cc1 [Methyl chavicol]
52.78
CCCCC[C@H](O)CC(=O)CCc1ccc(O)c(OC)c1 [Gingerol]
22.22
Cc1ccc(C(C)C)c(O)c1 [Thymol]
27.78

###

Entries and their measured % Corrected Mortality at 48 Hrs. follow.
System: Mealy Bug
Settings: mealy bug on cotton plants, green house; dose 1 ml/gm/lit. spray; 48 hrs; corrected for water control
Observation Type: % Corrected Mortality at 48 Hrs. (%)

CCCCCCCCCCCCCCCC(=O)O
50.00
Cc1ccc(C(C)C)cc1O
61.11
C=C1C2CCC(C2)C1(C)C (centres unmarked)
47.22
CCCCCCCCCC(C)=O
52.78
C=CCc1ccc(OC)cc1
55.56
O=c1oc2c(O)c(O)cc3c(=O)oc4c(O)c(O)cc1c4c23
52.78
Cc1ccc(C(C)C)c(O)c1
50.00
O=C(/C=C/C=C/c1ccc2c(c1)OCO2)N1CCCCC1
52.78
CC12CCC(CC1=O)C2(C)C (centres unmarked)
63.89
CC1=CC(=O)C(C(C)C)=CC1=O
44.44
CC12CCC(CC1)C(C)(C)O2
38.89

###

Recorded Plant Height % Increase over pre on 10th Day, one value per entry.
Tested on: chili seedlings
Experiment: Response of chili plants, greenhouse growth (Ex. 31)
Format: in vivo
Details: chili seedlings; dose 1 ml/gm/lit; 10th day
Observation Type: Plant Height % Increase over pre on 10th Day (%)

CC1CCC(C(C)C)C(O)C1 (stereo not shown)
45.21
Cc1ccc(C(C)C)cc1
51.05
C=CCc1ccc(O)c(OC)c1
66.08
CC1=CC(=O)C(C(C)C)=CC1=O
63.27
Cc1ccc(C(C)C)cc1O
65.77
C=C1C2CCC(C2)C1(C)C (stereo not shown)
57.61
CC(C)c1ccc(C=O)cc1
50.00

###

Tested on: Aphid
Settings: in vivo
Observation Type: % Corrected Mortality at 48 Hrs. (%)

Cc1ccc(C(C)C)c(O)c1
57.14
CC(C)c1ccc(C=O)cc1
45.71
Cc1ccc(C(C)C)cc1
54.29
COc1cc(CNC(=O)CCCC/C=C/C(C)C)ccc1O
57.14
CC(C)=CCCC(C)=CC=O
60.00

###

Reported mortality at 1 mL or g/L values for the following molecules.
Tested on: Spodoptera litura
Test: whole plant or invertebrate
Conditions: 72 h, read-out: % Mortality at 72 Hrs.
Observation Type: mortality at 1 mL or g/L (%)

CC12CCC(CC1)C(C)(C)O2 [1,8 cineole]
60
C=C(C)[C@H]1CC=C(C)CC1 [D-limonene]
25
CC12CCC(CC1=O)C2(C)C (stereo not drawn) [Camphor]
42.5
CCCCC[C@H](O)CC(=O)CCc1ccc(O)c(OC)c1 [Gingerol]
40
CCCCCCCCCCCCCCCC(=O)O [Palmitic acid]
25
O=c1oc2c(O)c(O)cc3c(=O)oc4c(O)c(O)cc1c4c23 [Ellagic acid]
60
